Molecular target: SARS-COV-2 3CLpro/Mpro protease (Severe acute respiratory syndrome coronavirus 2 (2019-nCoV) (SARS-CoV-2))
Assay: Inhibitory effect on SARS-COV-2 3CLpro/Mpro protease by fluorescence resonance energy transfer
Assay type: biochemical
Conditions: activity intervals A-D, read-out: IC50 (nM), Inhibition on SARS-CoV-2 3CLpro/Mpro protease
Measure: IC50

Quick check: IC50 of O=C(N[C@H]1CCCC[C@H]1Nc1c(C(=O)N2CC(F)(F)C2)cc(Br)cc1[N+](=O)[O-])c1cncc2ccccc12 ?
10 to 50 nM

Consider next the molecule O=C(N[C@H]1COCC[C@H]1Nc1c(C(=O)N2CCC(F)(F)CC2)cc(Br)cc1[N+](=O)[O-])c1cncc2cc(Cl)ccc12 in the same way.
50 to 100 nM

Consider next the molecule CNc1cncc(C(=O)N2C[C@H](Nc3c(C(=O)N4C[C@@H](C)O[C@@H](C)C4)cc(Br)cc3[N+](=O)[O-])C[C@H]2C(=O)Nc2cccc(Br)c2)c1 in the same way.
50 to 100 nM

Consider next the molecule O=C(N[C@H]1CCCC[C@H]1Nc1c(C(=O)N2CCN(CCO)CC2)cc(Br)cc1[N+](=O)[O-])c1cncc2cc(Cl)ccc12 in the same way.
10 to 50 nM

Consider next the molecule CNc1cncc(C(=O)N2C[C@H](Nc3c(C(=O)N4C[C@@H](C)O[C@@H](C)C4)cc(Br)cc3[N+](=O)[O-])C[C@H]2C(=O)Nc2cn(C)nc2Br)c1 in the same way.
50 to 100 nM

Consider next the molecule C[C@@H]1CN(C(=O)c2cc(Br)cc([N+](=O)[O-])c2NC2CN(C(=O)c3cncc(I)c3)CC2(F)F)C[C@H](C)O1 (stereo partly drawn) in the same way.
10 to 50 nM

Consider next the molecule CNc1cncc(C(=O)N2C[C@H](Nc3c(C(=O)N4C[C@@H](C)O[C@@H](C)C4)cc(Br)cc3[N+](=O)[O-])C[C@H]2C#Cc2ccn(C)n2)c1 in the same way.
100 to 200 nM

Consider next the molecule CNc1cncc(C(=O)N2C[C@H](Nc3c(C(=O)N4C[C@@H](C)O[C@@H](C)C4)cc(Br)cc3[N+](=O)[O-])C[C@@H]2C#N)c1 in the same way.
50 to 100 nM
